Target: MCL-1 (Homo sapiens (Human), UniProt Q07820, K194A/K197A/R201A)
Experiment: Protein-protein interaction assay MCL-1/Noxa BH3 peptide (MCL-1 assay, TR-FRET)
Assay type: binding
Details: MCL-1 Assay IC50 (median)
Binary label based on IC50 with cut-off 3 nM: below gives 1.0, not below gives 0.0.

>>> class_name("CCc1c2c(nn1C)C(CCN1CCOCC1)OCCCCn1c(C(=O)O)c(CCCOc3cccc4cc(F)ccc34)c3ccc(F)c-2c31 (racemic) [Example 49]")
1.0
>>> class_name("Cc1c2c(nn1C)C(C)OCCCCn1c(C(=O)O)c(CCCOc3cccc4ccccc34)c3cccc-2c31 (single isomer, unassigned; stereoisomer 2) [Example 3]")
0.0
>>> class_name("CCc1c2c(nn1C)C(CCO)OCCCCn1c(C(=O)O)c(CCCOc3cccc4cc(F)ccc34)c3ccc(Cl)c-2c31 (single isomer, unassigned; enantiomer 1) [Example 45]")
1.0
>>> class_name("CCc1c2c(nn1C)C(c1ccccc1)OCCCCn1c(C(=O)O)c(CCCOc3cccc4cc(F)ccc34)c3ccc(Cl)c-2c31 (racemic) [Example 59]")
1.0
>>> class_name("Cc1c2c(nn1C)C(CCO)OCCCCn1c(C(=O)O)c(CCCOc3cccc4ccccc34)c3ccc(Cl)c-2c31 (single isomer, unassigned; enantiomer 2) [Example 32]")
0.0
>>> class_name("CCc1c2c(nn1C)C(Cc1ccccc1)OCCCCn1c(C(=O)O)c(CCCOc3cccc4cc(F)ccc34)c3ccc(Cl)c-2c31 (racemic) [Example 92]")
0.0

----------
Biological target: MCL1 protein / biotinylated BIM BH3 peptide in RKO cells (Homo sapiens (Human))
Sequence (Q07820 whole entry): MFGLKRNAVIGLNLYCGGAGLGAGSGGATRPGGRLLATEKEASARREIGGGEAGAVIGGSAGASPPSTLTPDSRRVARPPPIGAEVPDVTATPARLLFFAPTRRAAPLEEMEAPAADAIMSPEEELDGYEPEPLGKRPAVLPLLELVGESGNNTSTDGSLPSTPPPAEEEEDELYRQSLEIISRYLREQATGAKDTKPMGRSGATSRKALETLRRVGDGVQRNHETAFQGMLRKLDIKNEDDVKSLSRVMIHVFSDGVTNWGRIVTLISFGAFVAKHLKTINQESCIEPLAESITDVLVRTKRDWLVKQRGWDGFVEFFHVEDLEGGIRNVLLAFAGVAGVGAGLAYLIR
Assay: PIxEL: protein-protein interaction in permeabilized cells by ELISA (Assay 5)
Type: cell-based
Conditions: PIxEL IC50 (median), uM
OBSERVABLE: IC50

>>> observed_value("CCc1c2c(nn1C)C(CCN1CCOCC1)OCCCCn1c(C(=O)O)c(CCCOc3cccc4ccccc34)c3ccc(F)c-2c31 (single isomer, unassigned; enantiomer 1) [Example 11]")
"> 30 µM"

----------
Test system: SNU-389 cells
Experiment: Antiproliferation assay SNU-389 (Assay 7)
Type: cell-based
Conditions: 72 h, CellTiter-Glo; read-out: Antiproli SNU-389 IC50
OBSERVABLE: IC50 (nM)

>>> observed_value("CCc1c2c(nn1C)C(CCN1CCC(F)(F)C1)OCCCCn1c(C(=O)O)c(CCCOc3cccc4cc(F)ccc34)c3ccc(Cl)c-2c31 (single isomer, unassigned; enantiomer 1)")
223
>>> observed_value("CCc1c2c(nn1C)C(CCN1CC(F)(F)C1)OCCCCn1c(C(=O)O)c(CCCOc3cccc4cc(F)ccc34)c3ccc(Cl)c-2c31 (single isomer, unassigned; (+))")
151
>>> observed_value("CCc1c2c(nn1C)C(CCN1CCOCC1)OCCCCn1c(C(=O)O)c(CCCOc3cccc4cc(F)ccc34)c3ccc(F)c-2c31 (single isomer, unassigned; enantiomer 1)")
455
>>> observed_value("CCc1c2c(nn1C)C(CCO)OCCCCn1c(C(=O)O)c(CCCOc3cccc4cc(F)ccc34)c3ccc(Cl)c-2c31 (single isomer, unassigned; enantiomer 1)")
350
>>> observed_value("CCc1c2c(nn1C)C(CCN1CCOCC1)OCC(F)(F)CCn1c(C(=O)O)c(CCCOc3cccc4cc(F)ccc34)c3ccc(Cl)c-2c31 (single isomer, unassigned; (+))")
141

----------
Measured IC50 of individual entries
System: SUDHL10 cells
Assay: Induction of cytotoxicity in SUDHL10 cells (Assay 6)
Format: cell-based
Details: 5 h, CellTiter-Glo; read-out: Cytotox SUDHL10 IC50 (median)
OBSERVABLE: IC50

>>> observed_value("Cc1c2c(nn1C)C(CCO)OCCCCn1c(C(=O)O)c(CCCOc3cccc4ccccc34)c3ccc(Cl)c-2c31 (single isomer, unassigned; enantiomer 2) [Example 32]")
"> 33 µM"
>>> observed_value("CCc1c2c(nn1C)C(CCOC)OCCCCn1c(C(=O)O)c(CCCOc3cccc4cc(F)ccc34)c3ccc(Cl)c-2c31 (single isomer, unassigned; enantiomer 1) [Example 42]")
"0.066 µM"
>>> observed_value("CCc1c2c(nn1C)C(CCN1CCOCC1)OCCCCn1c(C(=O)O)c(CCCOc3cccc4cc(F)ccc34)c3ccc(F)c-2c31 (single isomer, unassigned; enantiomer 1) [Example 50]")
"0.027 µM"
>>> observed_value("CCc1c2c(nn1C)[C@@H](CCN1CCOCC1)OCCCCn1c(C(=O)O)c(CCCOc3cccc4cc(F)ccc34)c3ccc(Cl)c-2c31 [Example 48]")
"0.2 µM"
>>> observed_value("CCc1c2c(nn1C)C(CCN1CCC(F)(F)C1)OCCCCn1c(C(=O)O)c(CCCOc3cccc4cc(F)ccc34)c3ccc(Cl)c-2c31 (single isomer, unassigned; enantiomer 2) [Example 57]")
"10 µM"
>>> observed_value("CCC1OCCCCn2c(C(=O)O)c(CCCOc3cccc4ccccc34)c3ccc(Cl)c(c32)-c2c1nn(C)c2C (single isomer, unassigned; enantiomer 2) [Example 30]")
"> 33 µM"
>>> observed_value("CCc1c2c(nn1C)C(CCC1CCOCC1)OCCCCn1c(C(=O)O)c(CCCOc3cccc4cc(F)ccc34)c3ccc(Cl)c-2c31 (single isomer, unassigned; enantiomer 2) [Example 64]")
"2.6 µM"
>>> observed_value("CCc1c2c(nn1C)C(CCOC)OCCCCn1c(C(=O)O)c(CCCOc3cccc4cc(F)ccc34)c3ccc(Cl)c-2c31 (single isomer, unassigned; enantiomer 2) [Example 43]")
"19 µM"
>>> observed_value("CCc1c2c(nn1C)C1CCCN1CCCCn1c(C(=O)O)c(CCCOc3cccc4cc(F)ccc34)c3ccc(Cl)c-2c31 (racemic) [Example 107]")
"0.89 µM"
>>> observed_value("CCc1c2c(nn1C)C(CCN1CCC(F)(F)C1)OCCCCn1c(C(=O)O)c(CCCOc3cccc4cc(F)ccc34)c3ccc(Cl)c-2c31 (single isomer, unassigned; enantiomer 1) [Example 56]")
"0.039 µM"
>>> observed_value("Cc1c2c(nn1C)C(CCN1CCOCC1)OCCCCn1c(C(=O)O)c(CCCOc3cccc4ccccc34)c3ccc(F)c-2c31 (single isomer, unassigned; enantiomer 2) [Example 9]")
"16 µM"

----------
System: SUDHL5 cells
Experiment: Induction of cytotoxicity in SUDHL5 cells (Assay 6)
Type: cell-based
Settings: 5 h, CellTiter-Glo; read-out: Cytotox SUDHL5 IC50 (median)
pIC50: −log10 of the molar value.
The threshold is inclusive: pIC50 of exactly 6 counts as fulfilled; values below receive not fulfilled.

>>> class_name("CCc1c2c(nn1C)C(CCN1CCOCC1)OCC(F)(F)CCn1c(C(=O)O)c(CCCOc3cccc4cc(F)ccc34)c3ccc(Cl)c-2c31 (centres unmarked) [Example 86]")
"fulfilled"
>>> class_name("Cc1c2c(nn1C)C(C1CC1)OCCCCn1c(C(=O)O)c(CCCOc3cccc4ccccc34)c3ccc(Cl)c-2c31 (single isomer, unassigned; enantiomer 1) [Example 35]")
"not fulfilled"
>>> class_name("CCc1c2c(nn1C)C(C(F)(F)F)OCCCCn1c(C(=O)O)c(CCCOc3cccc4ccccc34)c3ccc(Cl)c-2c31 (single isomer, unassigned; enantiomer 2) [Example 34]")
"not fulfilled"
>>> class_name("CCc1c2c(nn1C)C(CCC1CCOCC1)OCCCCn1c(C(=O)O)c(CCCOc3cccc4cc(F)ccc34)c3ccc(Cl)c-2c31 (single isomer, unassigned; enantiomer 1) [Example 63]")
"fulfilled"
>>> class_name("CCc1c2c(nn1C)C(CCCN1CCOCC1)OCCCCn1c(C(=O)O)c(CCCOc3cccc4cc(F)ccc34)c3ccc(Cl)c-2c31 (single isomer, unassigned; enantiomer 2) [Example 67]")
"not fulfilled"
>>> class_name("CCc1c2c(nn1C)C(CCN1CCOCC1)OCCCCn1c(C(=O)O)c(CCCOc3cccc4cc(F)ccc34)c3ccc(F)c-2c31 (single isomer, unassigned; enantiomer 2) [Example 51]")
"not fulfilled"
>>> class_name("CCc1c2c(nn1C)C(CC(C)(C)O)OCCCCn1c(C(=O)O)c(CCCOc3cccc4cc(F)ccc34)c3ccc(Cl)c-2c31 (single isomer, unassigned; enantiomer 21) [Example 54]")
"not fulfilled"
>>> class_name("CCc1c2c(nn1C)C(CCO)OCCCCn1c(C(=O)O)c(CCCOc3cccc4cc(F)ccc34)c3ccc(Cl)c-2c31 (single isomer, unassigned; enantiomer 1) [Example 45]")
"fulfilled"
>>> class_name("CCc1c2c(nn1C)C(CCN1CCOCC1)N(C)CCCCn1c(C(=O)O)c(CCCOc3cccc4cc(F)ccc34)c3ccc(Cl)c-2c31 (racemic) [Example 96]")
"fulfilled"

----------
Molecular target: BCL-2 (Homo sapiens (Human), UniProt P10415)
Sequence (P10415 1-211): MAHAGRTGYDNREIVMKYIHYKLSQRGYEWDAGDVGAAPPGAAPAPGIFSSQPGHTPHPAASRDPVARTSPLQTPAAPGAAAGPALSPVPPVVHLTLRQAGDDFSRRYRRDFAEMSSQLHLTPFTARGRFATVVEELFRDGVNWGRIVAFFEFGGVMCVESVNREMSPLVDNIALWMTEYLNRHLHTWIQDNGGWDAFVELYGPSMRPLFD
Experiment: Protein-protein interaction assay BCL-2/Bad BH3 peptide (BCL-2 assay, TR-FRET)
Conditions: read-out: BCL-2 Assay IC50 (median)
pIC50: −log10 of the molar value.
OBSERVABLE: pIC50

>>> observed_value("CCc1c2c(nn1C)C(Cc1ccccc1)OCCCCn1c(C(=O)O)c(CCCOc3cccc4cc(F)ccc34)c3ccc(Cl)c-2c31 (racemic)")
4.91
>>> observed_value("CCc1c2c(nn1C)C(CCN1CCC(F)(F)C1)OCCCCn1c(C(=O)O)c(CCCOc3cccc4cc(F)ccc34)c3ccc(Cl)c-2c31 (racemic) [Example 55]")
"< 4.70"
>>> observed_value("CCc1c2c(nn1C)C(CCOC)OCCCCn1c(C(=O)O)c(CCCOc3cccc4cc(F)ccc34)c3ccc(Cl)c-2c31 (single isomer, unassigned; enantiomer 1) [Example 42]")
"< 4.70"
>>> observed_value("CCC1OCCCCn2c(C(=O)O)c(CCCOc3cccc4ccccc34)c3ccc(Cl)c(c32)-c2c1nn(C)c2C (single isomer, unassigned; enantiomer 2) [Example 30]")
"< 4.70"
>>> observed_value("CCc1c2c(nn1C)C(CCN1CCN(C)CC1)OCCCCn1c(C(=O)O)c(CCCOc3cccc4cc(F)ccc34)c3ccc(Cl)c-2c31 (racemic) [Example 68]")
"< 4.70"
>>> observed_value("CCc1c2c(nn1C)C(CCCN1CCOCC1)OCCCCn1c(C(=O)O)c(CCCOc3cccc4cc(F)ccc34)c3ccc(Cl)c-2c31 (racemic)")
"< 4.70"
>>> observed_value("Cc1c2c(nn1C)C(CCN1CCOCC1)OCCCCn1c(C(=O)O)c(CCCOc3cccc4cc(F)ccc34)c3ccc(F)c-2c31 (single isomer, unassigned; enantiomer 1) [Example 20]")
"< 4.70"
>>> observed_value("CCc1c2c(nn1C)C(CCN1CCOCC1)OCCCCn1c(C(=O)O)c(CCCOc3cccc4cc(F)ccc34)c3ccc(F)c-2c31 (single isomer, unassigned; enantiomer 2) [Example 51]")
"< 4.70"
>>> observed_value("Cc1c2c(nn1C)C(CCN1CCOCC1)OCCCCn1c(C(=O)O)c(CCCOc3cccc4cc(F)ccc34)c3ccc(Cl)c-2c31 (single isomer, unassigned; enantiomer 1) [Example 17]")
"< 4.70"
>>> observed_value("CCc1c2c(nn1C)C(CCO)OCCCCn1c(C(=O)O)c(CCCOc3cccc4cc(F)ccc34)c3ccc(Cl)c-2c31 (single isomer, unassigned; enantiomer 2) [Example 46]")
"< 4.70"
>>> observed_value("Cc1c2c(nn1C)C(C)OCCCCn1c(C(=O)O)c(CCCOc3cccc4ccccc34)c3cccc-2c31 (single isomer, unassigned; stereoisomer 1) [Example 2]")
"< 4.70"
>>> observed_value("CCc1c2c(nn1C)C(CCN1CCOCC1)OCCCCn1c(C(=O)O)c(CCCOc3cccc4cc(F)ccc34)c3ccc(F)c-2c31 (racemic) [Example 49]")
"< 4.70"
>>> observed_value("CCC1OCCCCn2c(C(=O)O)c(CCCOc3cccc4ccccc34)c3ccc(Cl)c(c32)-c2c1nn(C)c2C (single isomer, unassigned; enantiomer 1) [Example 29]")
"< 4.70"
>>> observed_value("CCc1c2c(nn1C)C(CCN1CCN(C)CC1)OCCCCn1c(C(=O)O)c(CCCOc3cccc4cc(F)ccc34)c3ccc(Cl)c-2c31 (racemic) [Example 71]")
"< 4.70"
>>> observed_value("CCc1c2c(nn1C)C(CCC1CCOCC1)OCCCCn1c(C(=O)O)c(CCCOc3cccc4cc(F)ccc34)c3ccc(Cl)c-2c31 (racemic) [Example 60]")
4.85
>>> observed_value("Cc1c2c(nn1C)C(CCO)OCCCCn1c(C(=O)O)c(CCCOc3cccc4ccccc34)c3ccc(Cl)c-2c31 (single isomer, unassigned; enantiomer 2) [Example 32]")
"< 4.70"
>>> observed_value("CCc1c2c(nn1C)C(CCN1CCOCC1)OCCCCn1c(C(=O)O)c(CCCOc3cccc4cc(F)ccc34)c3ccc(Cl)c-2c31 (racemic)")
"< 4.70"
>>> observed_value("CCc1c2c(nn1C)C(CCN1CCOCC1)OCCCCn1c(C(=O)O)c(CCCOc3cccc4ccccc34)c3ccc(F)c-2c31 (single isomer, unassigned; enantiomer 2) [Example 12]")
"< 4.70"
>>> observed_value("CCc1c2c(nn1C)C(CC(C)(C)O)OCCCCn1c(C(=O)O)c(CCCOc3cccc4cc(F)ccc34)c3ccc(Cl)c-2c31 (racemic) [Example 52]")
4.80
>>> observed_value("CCc1c2c(nn1C)C(CCO)OCCCCn1c(C(=O)O)c(CCCOc3cccc4cc(F)ccc34)c3ccc(Cl)c-2c31 (single isomer, unassigned; enantiomer 1) [Example 45]")
"< 4.70"
>>> observed_value("CCc1c2c(nn1C)C(CCN1CCC(F)(F)C1)OCCCCn1c(C(=O)O)c(CCCOc3cccc4cc(F)ccc34)c3ccc(Cl)c-2c31 (single isomer, unassigned; enantiomer 2) [Example 57]")
"< 4.70"

Cited source for all entries: patent US11440923B2
